B1: Myocardin-related transcription factor A, residues 341 to 383; numbered along this chain, Q969V6 (parent)
chain: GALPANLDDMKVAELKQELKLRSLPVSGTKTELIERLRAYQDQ

- Variants of: B1
- assay text: abundance fitness (aPCA) (normalised: wild type 0, dead -1); higher = more abundant; growth selection in yeast, the domain comes from the species named
- measurement setup: Homo sapiens
Use yes (1) when the recorded abundance fitness is no lower than -0.2; use no (0) when it is lower.

    variant_descriptor  group_label
 0                I34A      yes (1)
 1                G28H       no (0)
 2                S23V       no (0)
 3                E35I      yes (1)
 4                G28P       no (0)
 5                L24M      yes (1)
 6                L21A      yes (1)
 7                S27Q       no (0)
 8                S27R      yes (1)
 9                L33T       no (0)
10                R22C      yes (1)
11                T31K      yes (1)
12                T29V       no (0)
13                I34H      yes (1)
14                S23E      yes (1)
15                L21D      yes (1)
16                E35R      yes (1)
17                Q43W      yes (1)
18                T31N       no (0)
19                S23H      yes (1)
20                Q41F      yes (1)
21                S27D      yes (1)
